# Tested on: HeLa cervical cancer cell line
# Assay Name: In-vitro cell survival assay (Alamar blue), HeLa
# Assay type: cell-based
# Study Conditions: Homo sapiens, 24 h, one day after compound addition
Assay Readout: EC50

Solved entries:
# Compound, Measured On, EC50
data = [
    ("O=C(NCC1CCCCC1)c1cccc(Nc2nccc(Nc3ccc4ncsc4c3)n2)c1 [drawing 407]", "HeLa cervical cancer cell line", "> 100 µM"),
    ("Cc1cccc(Nc2ccnc(Nc3cccc(C(=O)N4CC=CCC4)c3)n2)c1 [drawing 371]", "HeLa cervical cancer cell line", "25 µM"),
]

Consider the compound COc1ccccc1-c1cc(C(F)F)n2ncc(C(=O)NCc3cccnc3)c2n1 [drawing 361] and give its recorded EC50. > 100 µM

====

# Test system: LN18 glioblastoma cell line
# Assay Name: In-vitro cell survival assay (Alamar blue), LN18
# Type: cell-based
# Study Conditions: Homo sapiens, LN-18, 24 h; LN18, one day after compound addition
Items are presented alongside their recorded log10(EC50).
Kindly note that the scale is log10 and the underlying EC50 is in µM.

Solved entries:
# Compound, Reported
data = [
    ("O=C(NNc1nc2ccccc2nc1Cc1ccccc1)c1cccc(Cl)c1 [drawing 366]", 1.34),
    ("CN1CCN(C(=O)c2cccc(Nc3ncc(Cl)c(Nc4ccc5ncsc5c4)n3)c2)CC1 [drawing 466]", 1.18),
    ("O=C1NN=C(c2ccccc2)/C1=C1\\OC(c2ccccc2)=CS1 [drawing 392]", 1.23),
    ("CC1=NNC(=O)/C1=C\\c1cn(-c2ccccc2)nc1-c1ccccc1 [drawing 403]", 1.08),
    ("COc1ccc(N/C=C2\\C(=O)NN=C2c2ccccc2)cc1 [drawing 369]", 1.89),
]

// below: log10(EC50) requested for another compound
Consider the compound Nc1cccc(C2CCN(c3nccc(Nc4ccc5ncsc5c4)n3)CC2)c1 [drawing 439] and give its recorded log10(EC50). 1.18

====

# Measured On: ROS (Homo sapiens, UniProt P08922)
# Sequence (P08922 28-2347): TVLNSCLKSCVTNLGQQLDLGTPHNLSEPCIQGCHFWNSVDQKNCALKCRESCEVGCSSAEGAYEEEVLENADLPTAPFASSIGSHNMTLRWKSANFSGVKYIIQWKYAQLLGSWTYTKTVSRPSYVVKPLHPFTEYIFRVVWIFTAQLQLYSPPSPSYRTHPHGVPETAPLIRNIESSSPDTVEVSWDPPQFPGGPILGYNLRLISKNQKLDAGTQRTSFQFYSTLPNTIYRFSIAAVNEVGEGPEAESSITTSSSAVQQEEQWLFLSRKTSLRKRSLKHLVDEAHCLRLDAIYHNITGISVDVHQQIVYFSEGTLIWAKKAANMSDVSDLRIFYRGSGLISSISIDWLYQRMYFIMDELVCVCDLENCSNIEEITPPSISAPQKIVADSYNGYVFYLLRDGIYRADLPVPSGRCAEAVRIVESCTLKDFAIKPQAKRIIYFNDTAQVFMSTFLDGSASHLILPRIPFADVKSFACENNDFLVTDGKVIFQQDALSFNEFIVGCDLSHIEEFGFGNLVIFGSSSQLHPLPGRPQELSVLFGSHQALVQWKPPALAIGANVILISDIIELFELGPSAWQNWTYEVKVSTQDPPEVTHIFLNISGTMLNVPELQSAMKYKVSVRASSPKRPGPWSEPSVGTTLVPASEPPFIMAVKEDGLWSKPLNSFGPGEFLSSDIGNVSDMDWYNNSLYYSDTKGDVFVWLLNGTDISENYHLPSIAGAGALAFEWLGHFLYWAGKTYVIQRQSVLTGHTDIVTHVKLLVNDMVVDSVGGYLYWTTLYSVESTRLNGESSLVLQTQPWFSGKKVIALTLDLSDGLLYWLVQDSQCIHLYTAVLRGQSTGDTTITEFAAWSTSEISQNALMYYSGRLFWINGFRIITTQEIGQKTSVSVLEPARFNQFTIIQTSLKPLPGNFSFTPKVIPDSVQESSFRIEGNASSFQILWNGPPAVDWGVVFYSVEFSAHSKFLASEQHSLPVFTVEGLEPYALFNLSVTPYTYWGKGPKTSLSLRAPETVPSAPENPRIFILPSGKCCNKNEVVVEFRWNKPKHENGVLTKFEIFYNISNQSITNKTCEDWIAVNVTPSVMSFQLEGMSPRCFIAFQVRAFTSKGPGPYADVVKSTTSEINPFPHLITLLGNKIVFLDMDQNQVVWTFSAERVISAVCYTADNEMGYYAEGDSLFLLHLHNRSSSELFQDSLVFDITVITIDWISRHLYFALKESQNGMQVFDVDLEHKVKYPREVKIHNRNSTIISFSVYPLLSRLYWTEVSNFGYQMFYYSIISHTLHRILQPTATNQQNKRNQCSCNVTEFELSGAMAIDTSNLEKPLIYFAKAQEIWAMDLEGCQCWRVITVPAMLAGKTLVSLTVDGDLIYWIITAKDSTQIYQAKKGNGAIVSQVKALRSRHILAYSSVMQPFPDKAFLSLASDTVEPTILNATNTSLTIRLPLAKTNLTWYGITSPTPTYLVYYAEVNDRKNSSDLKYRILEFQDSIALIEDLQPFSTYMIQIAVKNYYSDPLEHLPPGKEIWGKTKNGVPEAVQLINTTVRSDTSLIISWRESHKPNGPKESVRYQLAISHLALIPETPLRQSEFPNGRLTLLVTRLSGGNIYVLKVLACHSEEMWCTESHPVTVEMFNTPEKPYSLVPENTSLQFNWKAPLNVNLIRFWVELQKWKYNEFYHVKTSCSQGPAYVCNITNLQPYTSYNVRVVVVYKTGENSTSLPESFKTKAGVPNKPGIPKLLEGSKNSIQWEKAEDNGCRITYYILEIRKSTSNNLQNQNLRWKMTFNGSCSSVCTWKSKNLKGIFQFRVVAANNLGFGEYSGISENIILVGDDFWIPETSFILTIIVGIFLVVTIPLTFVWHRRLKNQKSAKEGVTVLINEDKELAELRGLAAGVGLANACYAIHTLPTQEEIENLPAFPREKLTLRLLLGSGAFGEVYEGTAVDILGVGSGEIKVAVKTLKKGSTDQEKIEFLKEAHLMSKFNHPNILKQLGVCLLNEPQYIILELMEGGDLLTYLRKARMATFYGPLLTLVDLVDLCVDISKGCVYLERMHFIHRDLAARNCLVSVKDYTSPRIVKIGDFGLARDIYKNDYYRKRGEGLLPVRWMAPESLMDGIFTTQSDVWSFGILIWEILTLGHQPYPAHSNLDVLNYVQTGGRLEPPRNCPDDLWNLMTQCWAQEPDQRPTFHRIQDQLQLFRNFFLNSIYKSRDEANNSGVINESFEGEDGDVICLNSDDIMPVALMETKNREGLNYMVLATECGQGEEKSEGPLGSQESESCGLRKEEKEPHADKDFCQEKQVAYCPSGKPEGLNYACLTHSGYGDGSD
# Assay Name: In vitro ROS enzymatic reaction assay (HTRF, Cisbio)
# Format: biochemical
# Design: ROS or EGFR enzyme, 0.008 ng/ul
Assay Readout: IC50 (nM)
Please give a number only; it is taken to be in nM.

# Compound, Value Unit, IC50
data = [
    ("O=c1c(O)c(-c2ccc(O)c(O)c2)oc2cc(O)cc(O)c12 [drawing 269]", "nM", 50),
    ("Brc1cccc(Nc2nccc(Nc3ccc4ncsc4c3)n2)c1 [drawing 305]", "nM", 17),
]

Consider the compound C1=C(c2cccc(Nc3nccc(Nc4ccc5ncsc5c4)n3)c2)CCNC1 [drawing 304] and give its recorded IC50. 41

Consider the compound CC(C)c1nc(Nc2ccc(C(=O)NCc3ccccc3)cc2)nc(Nc2ccc3ncsc3c2)n1 [drawing 322] and give its recorded IC50. 3690

Consider the compound O=C(c1ccc(Nc2ncc(Cl)c(Nc3ccc4ncsc4c3)n2)cc1)N1CCCCC1 [drawing 306] and give its recorded IC50. 70

Consider the compound Cc1ccc(CNC(=O)c2cccc(Nc3nccc(Nc4ccc5ncsc5c4)n3)c2)o1 [drawing 282] and give its recorded IC50. 196

Consider the compound CN1CCN(C(=O)c2cccc(Nc3ncc(Cl)c(Nc4ccc5ncsc5c4)n3)c2)CC1 [drawing 329] and give its recorded IC50. 330

Consider the compound CC(C)c1nc(NCC2CCCCC2)nc(Nc2ccc3ncsc3c2)n1 and give its recorded IC50. 528

Consider the compound Nc1nc(Nc2ccc(C(=O)NCc3ccco3)cc2)cc(Nc2ccc3ncsc3c2)n1 [drawing 238] and give its recorded IC50. 3810

Consider the compound CC(C)c1nc(Nc2ccc(C(=O)N3CCOCC3)cc2)nc(Nc2ccc3ncsc3c2)n1 [drawing 323] and give its recorded IC50. 333

Consider the compound CC(C)c1nc(Nc2ccc(Br)cc2)nc(Nc2ccc3ncsc3c2)n1 and give its recorded IC50. 840
